All figures here come from patent US20150010566A1.

Target: HA of Influenza H3N2 (A/Netherlands/177/2008), on infected MDCK-SIAT cells or on virus (Influenza A virus H3N2 A/Netherlands/177/2008)
Experiment: cell-based or functional assay
A collection of binders and their measured IC50, in vitro virus neutralization on MDCK-SIAT cells

Solved cases below.
>  <Binder>
AT10-003 (antibody, V domains shown) VH: QVHLVQSGAEVRKPGASVKVSCKVSGYTLNELSIHWLRQAPGRGLEWMGSFDPEDGETIYAQKFQGRVTMTGDTSTDTAYLELTSLRSEDTALYYCARGWGAVTSPFDFWGQGTLVTVSS VL: DIVMTQSPLSLPVTPGEPASISCRSSQSLLHSNGHIYFDWYLQKPGQSPQLLIYLVSKRASGVPDRFSGSGSGTDFTLKISRVEAEDVGVYYCMQALETPFTFGPGTKVHIKR

>  <Result Value>
> 50 µg/mL

$$$$
>  <Binder>
AT10-004 (antibody, V domains shown) VH: QVQLVQSGAEVRKPGASVKVSCKASGYTFTRHGISWVRQAPGQGLEWMGWISAYTGDTDYAQKFQGRVTMTTDTSTNTAYMELRSLRSDDAAVYYCARLRLQGEVVVPPSQSNWFDPWGQGTLVTVSS VL: EIVLTQSPATLSLYPGERATLSCRASQSVSRYLAWYQQKPGQAPRLLIYDASNRATGIPARFSGSGSGTDFTLTISSLEPEDFAVYYCQQRSNWLKITFGQGTRLEIKG

>  <Result Value>
0.17 µg/mL

$$$$
>  <Binder>
AT10-001 (antibody, V domains shown) VH: EVQLLESGGGLVQPGGSLRLSCAASGFSFSTYAMSWVRQAPGKGLEWVSGISGSGESTYYADSVKGRFTVSRDNSKNTLYLQMNSLRAEDTAVYYCAKQGDHIAWLLRGINFDYWGQGVLVTVSS VL: EIVLTQSPGTLSLSPGERATLSCRASQSVSSSYLAWYQQKPGQAPRLLIYGASTRATGIPDRFSGRGSGTDFTLTISSLEPEDFAVYYCQNYGSPFLFTFGPGTKVDIKR

>  <Result Value>
0.64 µg/mL

$$$$

Q: Reported IC50, in vitro virus neutralization on MDCK-SIAT cells for AT10-002 (antibody, V domains shown) VH: QLQLQESGPRLVKPSETLSLTCSVSGVSISSSNYYWGWIRQPPGKGLEWIGTIYHSGSTYYNPSLKSRLIISVDTSKNQFYLQLTSLTAADSAVYYCATGGGFGWSQTYFGYWGQGTLVTASS VL: QSALTQPASVSGSPGQSITISCTGTSSDVGAYNYVSWYQHHPGKAPKLMIYDVTYRPSGVSTRFSGSKSGNTASLTISGLQAEDEADYYCSSQSRSSTLVIFGGGTKLTVLG : what is it?
Ans: 0.18 µg/mL
